Biological target: recombinant mouse prion protein immobilised for SPR (mPrP) (Mus musculus, UniProt P04925)
Sequence (P04925 23-230): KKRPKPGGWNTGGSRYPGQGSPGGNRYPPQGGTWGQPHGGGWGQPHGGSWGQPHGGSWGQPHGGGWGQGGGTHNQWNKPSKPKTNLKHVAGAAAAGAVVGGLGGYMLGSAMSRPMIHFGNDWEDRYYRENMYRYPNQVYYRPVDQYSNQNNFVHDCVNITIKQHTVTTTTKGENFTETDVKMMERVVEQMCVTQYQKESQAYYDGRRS
Assay: SPR
Settings: both partners purified
Assay metric: log10 kon (log10 of the value in M⁻¹ s⁻¹)
Heads up, the numbers here are log10 of kon in M⁻¹ s⁻¹ units.

# Binder, Assay metric, Readout number
measured = [
    ("pomolog lcY96A (POM1 scFv, light chain Y96A) (scFv, V domains shown) VH: QVQLQQSGTELVMPGASVKMSCKASGYTFTDYWMHWVKQRPGQGLEWIGSIDPSDSYTSHNEKFKGKATLTVDESSSTAYMQLSSLTSEDSAVYFCSRSGYGYYAMEYWGQGTSVTVSS VL: DIVLTQSPAILSVSPGERVSFSCRASQNIGTSIHWYQQRTNESPRLIIKYASESISGIPSRFSGSGSGTDFTLSINSVESEDIADYYCQQSNTWPATFGGGTKLELK", "log10 kon", 4.79),
    ("pomolog hcD55A (POM1 scFv, heavy chain D55A) (scFv, V domains shown) VH: QVQLQQSGTELVMPGASVKMSCKASGYTFTDYWMHWVKQRPGQGLEWIGSIDPSASYTSHNEKFKGKATLTVDESSSTAYMQLSSLTSEDSAVYFCSRSGYGYYAMEYWGQGTSVTVSS VL: DIVLTQSPAILSVSPGERVSFSCRASQNIGTSIHWYQQRTNESPRLIIKYASESISGIPSRFSGSGSGTDFTLSINSVESEDIADYYCQQSNTWPYTFGGGTKLELK", "log10 kon", 5.00),
    ("pomolog hcD52A (POM1 scFv, heavy chain D52A) (scFv, V domains shown) VH: QVQLQQSGTELVMPGASVKMSCKASGYTFTDYWMHWVKQRPGQGLEWIGSIAPSDSYTSHNEKFKGKATLTVDESSSTAYMQLSSLTSEDSAVYFCSRSGYGYYAMEYWGQGTSVTVSS VL: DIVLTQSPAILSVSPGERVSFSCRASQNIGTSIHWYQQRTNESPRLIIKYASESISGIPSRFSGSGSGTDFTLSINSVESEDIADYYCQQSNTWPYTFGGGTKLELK", "log10 kon", 5.52),
    ("pomolog hcY101A (POM1 scFv, heavy chain Y101A) (scFv, V domains shown) VH: QVQLQQSGTELVMPGASVKMSCKASGYTFTDYWMHWVKQRPGQGLEWIGSIDPSDSYTSHNEKFKGKATLTVDESSSTAYMQLSSLTSEDSAVYFCSRSGAGYYAMEYWGQGTSVTVSS VL: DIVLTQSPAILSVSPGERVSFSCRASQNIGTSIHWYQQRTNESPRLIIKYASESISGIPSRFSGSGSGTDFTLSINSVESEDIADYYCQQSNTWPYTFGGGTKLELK", "log10 kon", 4.80),
    ("pomolog hcY104A (POM1 scFv, heavy chain Y104A) (scFv, V domains shown) VH: QVQLQQSGTELVMPGASVKMSCKASGYTFTDYWMHWVKQRPGQGLEWIGSIDPSDSYTSHNEKFKGKATLTVDESSSTAYMQLSSLTSEDSAVYFCSRSGYGYAAMEYWGQGTSVTVSS VL: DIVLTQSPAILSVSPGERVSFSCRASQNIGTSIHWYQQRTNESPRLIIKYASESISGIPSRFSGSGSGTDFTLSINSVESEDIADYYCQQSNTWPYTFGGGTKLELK", "log10 kon", 4.56),
]

// field: log10 kon; key: pomolog lcS32A (POM1 scFv, light chain S32A) (scFv, V domains shown) VH: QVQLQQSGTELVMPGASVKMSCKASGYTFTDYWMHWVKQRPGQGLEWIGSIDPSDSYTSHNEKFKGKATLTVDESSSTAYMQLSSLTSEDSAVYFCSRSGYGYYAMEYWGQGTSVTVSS VL: DIVLTQSPAILSVSPGERVSFSCRASQNIGTAIHWYQQRTNESPRLIIKYASESISGIPSRFSGSGSGTDFTLSINSVESEDIADYYCQQSNTWPYTFGGGTKLELK ; value = 4.81

Query pomolog lcS91A (POM1 scFv, light chain S91A) (scFv, V domains shown) VH: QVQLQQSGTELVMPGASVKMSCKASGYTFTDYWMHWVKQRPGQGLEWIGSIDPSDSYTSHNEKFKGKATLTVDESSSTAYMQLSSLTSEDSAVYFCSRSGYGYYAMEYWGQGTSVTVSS VL: DIVLTQSPAILSVSPGERVSFSCRASQNIGTSIHWYQQRTNESPRLIIKYASESISGIPSRFSGSGSGTDFTLSINSVESEDIADYYCQQANTWPYTFGGGTKLELK yields log10 kon of 4.11

Kindly note the recorded log10 kon for pomolog lcY50A (POM1 scFv, light chain Y50A) (scFv, V domains shown) VH: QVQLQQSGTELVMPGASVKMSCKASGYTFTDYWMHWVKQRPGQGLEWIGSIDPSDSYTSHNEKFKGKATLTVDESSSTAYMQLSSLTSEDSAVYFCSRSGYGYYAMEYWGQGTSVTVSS VL: DIVLTQSPAILSVSPGERVSFSCRASQNIGTSIHWYQQRTNESPRLIIKAASESISGIPSRFSGSGSGTDFTLSINSVESEDIADYYCQQSNTWPYTFGGGTKLELK , which is 4.76

Query pomolog hcY57A (POM1 scFv, heavy chain Y57A) (scFv, V domains shown) VH: QVQLQQSGTELVMPGASVKMSCKASGYTFTDYWMHWVKQRPGQGLEWIGSIDPSDSATSHNEKFKGKATLTVDESSSTAYMQLSSLTSEDSAVYFCSRSGYGYYAMEYWGQGTSVTVSS VL: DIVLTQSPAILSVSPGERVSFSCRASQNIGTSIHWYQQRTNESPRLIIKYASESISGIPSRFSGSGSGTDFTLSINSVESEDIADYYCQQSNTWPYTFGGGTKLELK yields log10 kon of 4.89

Noted for pomolog lcW94A (POM1 scFv, light chain W94A) (scFv, V domains shown) VH: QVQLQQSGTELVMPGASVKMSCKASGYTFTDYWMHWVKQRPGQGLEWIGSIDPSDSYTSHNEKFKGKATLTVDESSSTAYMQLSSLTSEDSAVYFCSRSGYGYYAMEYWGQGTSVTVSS VL: DIVLTQSPAILSVSPGERVSFSCRASQNIGTSIHWYQQRTNESPRLIIKYASESISGIPSRFSGSGSGTDFTLSINSVESEDIADYYCQQSNTAPYTFGGGTKLELK : its log10 kon reads 5.49
